assay: folding enthalpy; higher = less favourable; fluorescence melt of hairpins on a sequencing array, two-state fit; details: sodium 0.088 M
I'd be grateful if you could share measured folding enthalpy for these entries.
Write it as a number; the unit kcal/mol goes unstated.

I would be grateful if you could share the reported folding enthalpy for GAGTAGGGAAACCTACTC (((((((....))))))) .
-46.6

Could you tell me which folding enthalpy is on file for GGAATGCCGAAAGGCTCC (((..(((....)))))) ?
-10.2

What measured folding enthalpy goes with GCCGAGCGAAAGCAGGGC (((..((....))..))) ?
-26.3

Value lookup for folding enthalpy; key = TTAGTGAAAACTAA (((((....)))))
-8.57

What value of folding enthalpy has been recorded for this entry: GATAGAGGAAACTCTACC (.(((((....))))).)
-12.6

Recorded folding enthalpy for GGCCTCGAAAGAGCAGCC ((((((....)))..))) , please?
-22.3

Entry under review: GATCTGGCCCAGATC ((((((...)))))) . Reported folding enthalpy?
-35.1

Reported folding enthalpy, sequence GCCCTTGGAAACGAGGGC (((((.(....).))))) : ____
-41.4

# get_value(readout='folding enthalpy', item= GGCGCCGAAAGGCTGCC ((((((....))).))) )
-19.4

Dear colleague, I am looking for the recorded folding enthalpy of the following sequence: ACCTCGAAAGAGGT (((((....)))))
-19.9

Name the recorded folding enthalpy for GGGTCGGCGAAAGCCCCC (((..(((....)))))) .
-13.9

Which folding enthalpy value is on record for GAAACAGCGAAAGCTTTC (((..(((....)))))) ?
-15.3

I have this sequence here, GCGGGACCCGC ((((...)))) , and I need its recorded folding enthalpy.
-24.5

May I ask what folding enthalpy has been recorded for GGTGTCGGAAACGATGCC ((..(((....)))..)) ?
-26.7

What folding enthalpy value was documented for this sequence, GTTACAGGAAACTGCAAC (((.(((....))).))) ?
-23.4

Recorded folding enthalpy for GCGTAGCGAAAGCTCGGC ((..(((....)))..)) , please?
-7.84

Which value of folding enthalpy has been reported for GATCGGAGTGCCGATC ((((((....)))))) in the records?
-30.2

Look up folding enthalpy for this sequence: GATCGACGAAAGTCAATC (((.(((....))).)))
-20.5

For GAATTGCGAAAGCACTTC (((.(((....))).))) , what is its reported folding enthalpy?
-21.1

Fill blank: measured folding enthalpy of the sequence GATACGGGAAACCGTGTC ((.((((....)))).)) is ____.
-30.7

Which folding enthalpy value is on record for GAGACCGAAAGGTTACTC ((((((....)))..))) ?
-12.8

Quick one: folding enthalpy for GCAGCCGGAAACGGCCGC ((.((((....)))).)) ?
-17.2

# get_value(readout='folding enthalpy', item= GCGGGGTCCGC ((((...)))) )
-28.7

Reported folding enthalpy, sequence GTCGTTGGAAACAATGGC (.(.(((....))).).) : ____
-24.8

Recorded folding enthalpy of GCGAGGTATCGC ((((....)))) , please.
-21.6

What folding enthalpy value was documented for this sequence, GCACCGGCGAAAGCCTGC (((..(((....)))))) ?
-12.6
